- tested_on: human TRPM8 (Homo sapiens, UniProt Q7Z2W7)
- Sequence (Q7Z2W7 whole entry): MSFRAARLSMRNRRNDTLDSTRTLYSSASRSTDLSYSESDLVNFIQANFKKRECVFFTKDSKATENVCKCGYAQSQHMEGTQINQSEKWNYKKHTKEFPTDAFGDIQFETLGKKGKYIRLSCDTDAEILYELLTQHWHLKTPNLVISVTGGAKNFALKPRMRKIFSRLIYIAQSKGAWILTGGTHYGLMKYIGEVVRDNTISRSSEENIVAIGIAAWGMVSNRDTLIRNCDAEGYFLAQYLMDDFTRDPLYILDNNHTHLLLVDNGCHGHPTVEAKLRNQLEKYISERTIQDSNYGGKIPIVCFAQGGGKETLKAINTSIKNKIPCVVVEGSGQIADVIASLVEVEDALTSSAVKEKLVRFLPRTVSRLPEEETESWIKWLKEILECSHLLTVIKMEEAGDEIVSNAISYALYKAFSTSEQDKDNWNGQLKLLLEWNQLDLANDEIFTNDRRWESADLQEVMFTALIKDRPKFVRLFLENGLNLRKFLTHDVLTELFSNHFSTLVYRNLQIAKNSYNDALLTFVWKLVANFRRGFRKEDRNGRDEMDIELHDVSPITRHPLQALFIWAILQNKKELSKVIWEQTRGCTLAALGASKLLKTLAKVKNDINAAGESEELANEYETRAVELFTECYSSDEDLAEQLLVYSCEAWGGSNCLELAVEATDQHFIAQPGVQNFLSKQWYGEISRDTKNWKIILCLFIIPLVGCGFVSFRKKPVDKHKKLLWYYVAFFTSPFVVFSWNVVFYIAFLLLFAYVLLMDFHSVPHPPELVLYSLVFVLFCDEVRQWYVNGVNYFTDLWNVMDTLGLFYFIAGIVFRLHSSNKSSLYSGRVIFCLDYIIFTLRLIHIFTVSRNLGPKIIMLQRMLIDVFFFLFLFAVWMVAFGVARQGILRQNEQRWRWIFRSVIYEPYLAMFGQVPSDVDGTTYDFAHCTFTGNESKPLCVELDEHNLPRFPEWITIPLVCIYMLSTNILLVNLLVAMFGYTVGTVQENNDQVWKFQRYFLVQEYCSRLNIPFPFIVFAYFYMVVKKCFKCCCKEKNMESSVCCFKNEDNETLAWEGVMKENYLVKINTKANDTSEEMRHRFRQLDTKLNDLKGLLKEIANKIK
- assay_overview: In vitro TRPM8 assay: intracellular calcium levels, Ca2+ sensitive fluorescent dye (FLIPR), agonist Icilin or Cooling Agent 10
- Assay type: cell-based
- Parameters: expressed in transfected cells
- settings: HEK-293 cells stably expressing human TRPM8; agonist Icilin at EC80; read-out: Ca2+ (IC50 μM) Icilin
IC50 under 1 µM gets Yes, anything at or over 1 µM gets No.

{"compound": "O=C(c1sc(-c2cccc(F)c2)nc1O)N1CCCC1 [Example 7]", "tested_on": "human TRPM8 (Homo sapiens, UniProt Q7Z2W7)", "label": "No"}
{"compound": "CN1CCCC1C(=O)c1sc(-c2cccc(F)c2)nc1O (centres unmarked) [Example 16]", "tested_on": "human TRPM8 (Homo sapiens, UniProt Q7Z2W7)", "label": "No"}
{"compound": "O=C(c1sc(-c2cccc(F)c2)nc1O)N1CC2CCCC2O1 (centres unmarked) [Example 30]", "tested_on": "human TRPM8 (Homo sapiens, UniProt Q7Z2W7)", "label": "Yes"}
{"compound": "O=C(c1sc(-c2cccc(F)c2)nc1O)n1cccn1 [Example 26]", "tested_on": "human TRPM8 (Homo sapiens, UniProt Q7Z2W7)", "label": "No"}
{"compound": "O=C(c1sc(-c2ccccc2O)nc1O)N1CCOC1 [Example 4]", "tested_on": "human TRPM8 (Homo sapiens, UniProt Q7Z2W7)", "label": "Yes"}
{"compound": "O=C(c1cccs1)c1sc(-c2cccc(F)c2)nc1O [Example 20]", "tested_on": "human TRPM8 (Homo sapiens, UniProt Q7Z2W7)", "label": "No"}
{"compound": "O=C(c1sc(-c2cccc(F)c2)nc1O)N1CCCCO1 [Example 9]", "tested_on": "human TRPM8 (Homo sapiens, UniProt Q7Z2W7)", "label": "Yes"}
{"compound": "O=C(c1ccncc1)c1sc(-c2cccc(F)c2)nc1O [Example 24]", "tested_on": "human TRPM8 (Homo sapiens, UniProt Q7Z2W7)", "label": "Yes"}
{"compound": "O=C(c1sc(-c2cccc(F)c2)nc1O)N1CCOCC1 [Example 12]", "tested_on": "human TRPM8 (Homo sapiens, UniProt Q7Z2W7)", "label": "No"}
{"compound": "O=C(c1sc(-c2cccc(F)c2)nc1O)N1CCCCC1 [Example 14]", "tested_on": "human TRPM8 (Homo sapiens, UniProt Q7Z2W7)", "label": "No"}
{"compound": "O=C(c1sc(-c2cccc(F)c2)nc1O)C1CCCN1 (centres unmarked) [Example 15]", "tested_on": "human TRPM8 (Homo sapiens, UniProt Q7Z2W7)", "label": "No"}
